All values here come from patent US10899787B2.

- Tgt: Recombinant human CYP3A4 enzyme (Homo sapiens, UniProt P08684)
- Construct: purchased BD company lot number 3100772
- Sequence (P08684 whole entry): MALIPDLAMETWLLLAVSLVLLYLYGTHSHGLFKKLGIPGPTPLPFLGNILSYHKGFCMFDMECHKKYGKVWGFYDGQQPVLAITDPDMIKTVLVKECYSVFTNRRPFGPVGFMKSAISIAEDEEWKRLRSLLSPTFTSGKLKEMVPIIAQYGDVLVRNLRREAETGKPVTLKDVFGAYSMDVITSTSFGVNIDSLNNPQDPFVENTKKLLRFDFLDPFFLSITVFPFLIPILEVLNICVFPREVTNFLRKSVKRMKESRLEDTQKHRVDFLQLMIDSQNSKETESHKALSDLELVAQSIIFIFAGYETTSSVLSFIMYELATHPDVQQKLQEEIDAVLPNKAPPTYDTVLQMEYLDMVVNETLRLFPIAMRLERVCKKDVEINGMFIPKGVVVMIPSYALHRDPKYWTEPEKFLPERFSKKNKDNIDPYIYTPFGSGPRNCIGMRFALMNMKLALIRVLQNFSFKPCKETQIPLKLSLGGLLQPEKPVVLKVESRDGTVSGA
- Assay Protocol: Evaluation of recombinant human CYP3A4 metabolism in vitro
- Assay type: in vitro ADME
- Condition Context: recombinant human CYP3A4 enzyme; test compound 100 nM; NADPH 2 mM; pH 7.4; samples at 1, 5, 10, 20, 30 min
Measurement Type: Elimination Rate in vitro (ml/min/gprot)

// known answers, use as guide
Nc1ccn([C@@H]2O[C@H](COP3(=O)OCC[C@H](c4cccc(Cl)c4F)O3)[C@@H](O)[C@@H]2O)c(=O)n1 (some centres unmarked)
8.28
Nc1ccn([C@@H]2O[C@H](COP3(=O)OCC[C@H](c4cc(Cl)ccc4F)O3)[C@@H](O)[C@@H]2O)c(=O)n1 (some centres unmarked)
35.0
Nc1ccn([C@@H]2O[C@H](COP3(=O)OCC[C@H](c4ccncc4)O3)[C@@H](O)[C@@H]2O)c(=O)n1 (some centres unmarked) [PA4102, reference compound]
3.26
Nc1ccn([C@@H]2O[C@H](COP3(=O)OCC[C@H](c4cc(F)ccc4Cl)O3)[C@@H](O)[C@@H]2O)c(=O)n1 (some centres unmarked)
23.6
Nc1ccn([C@@H]2O[C@H](COP3(=O)OCC[C@H](c4ccc(Cl)c(F)c4)O3)[C@@H](O)[C@@H]2O)c(=O)n1 (some centres unmarked)
14.9
Nc1ccn([C@@H]2O[C@H](COP3(=O)OCC[C@H](c4cccc(F)c4F)O3)[C@@H](O)[C@@H]2O)c(=O)n1 (some centres unmarked)
9.55
Nc1ccn([C@@H]2O[C@H](COP3(=O)OCC[C@H](c4cc(F)ccc4F)O3)[C@@H](O)[C@@H]2O)c(=O)n1 (some centres unmarked)
8.37

1: Nc1ccn([C@@H]2O[C@H](COP3(=O)OCC[C@H](c4cc(Cl)ccc4Cl)O3)[C@@H](O)[C@@H]2O)c(=O)n1 (some centres unmarked)
2: Nc1ccn([C@@H]2O[C@H](COP3(=O)OCC[C@H](c4cc(Cl)cc(Cl)c4)O3)[C@@H](O)[C@@H]2O)c(=O)n1 (some centres unmarked)
3: Nc1ccn([C@@H]2O[C@H](COP3(=O)OCC[C@H](c4ccc(F)c(Cl)c4)O3)[C@@H](O)[C@@H]2O)c(=O)n1 (some centres unmarked)
4: Nc1ccn([C@@H]2O[C@H](COP3(=O)OCC[C@H](c4cc(F)cc(F)c4)O3)[C@@H](O)[C@@H]2O)c(=O)n1 (some centres unmarked)
Ask: Could you please order the items by Elimination Rate in vitro, going from the lowest number to the highest? Lab note: record answer as labels in requested order.
Reply: 4, 3, 2, 1
(4: 2.93 ml/min/gprot, 3: 5.79 ml/min/gprot, 2: 23.1 ml/min/gprot, 1: 67.3 ml/min/gprot)
